# system: T1, recombinant human Nectin-4-His protein (human, UniProt Q96NY8 32-349)
# T1 construct: Rescreening antigen and bought ELISA antigen are treated as one molecule; also called human Nectin-4-His tagged; Ag1; not shown: His tag
# T1 sequence: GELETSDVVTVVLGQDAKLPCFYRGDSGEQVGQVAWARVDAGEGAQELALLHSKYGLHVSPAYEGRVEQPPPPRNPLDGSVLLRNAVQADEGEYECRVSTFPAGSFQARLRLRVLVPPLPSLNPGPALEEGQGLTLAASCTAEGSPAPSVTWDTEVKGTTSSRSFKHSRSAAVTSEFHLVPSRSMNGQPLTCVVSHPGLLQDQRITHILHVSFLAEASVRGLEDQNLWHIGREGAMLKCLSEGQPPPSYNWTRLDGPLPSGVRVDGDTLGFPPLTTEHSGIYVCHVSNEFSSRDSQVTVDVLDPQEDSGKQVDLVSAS
# protocol description: ELISA, recombinant antibody on coated antigen
property: EC50 (nM)
Supply the numeric figure in nM, leaving out any unit text.

binder="Nectin-4 7 E8H/7 E8L (recombinant chimeric antibody) (antibody, V domains shown) VH: QVQLKQSGPGLVQPSQSLSITCTVSGFSLATYGVHWVRQSPGKGLEWLGVIWSGGSTDYNAAFISRLSISKDNSKSQVFFKMNSLQADDTAIYYCARNSHWYFDVWGTGTTVTVSS VL: DIVMTQSQKFMSTSVGDRVSVTCKASQNVVTNVAWYQQKPGQSPKALIYSASYRYSGVPDRFTGSGSGTDFTLTISHVQSEDLAEYFCHQYNNYPYTFGGGTKLEIK" property=EC50 assay_value=0.361
binder="Nectin-4 5D9H/5D9L (recombinant chimeric antibody) (antibody, V domains shown, also called Nectin-4 5D9 chimeric mAb) VH: QVQLKQSGPGLVQPSQSLSITCTVSGFSLTNYGVHWVRQSPGKGLEWLGVIWSGGSTDYNAAFVSRLSISRDNSKSQVFFKMNSLQADDTAIYYCARSGKWYYFDYWGQGTTLTVSS VL: DIQMTQSPASLSVSVGETVTITCRASENIYSNLAWYQQKQGKSPQLLVYAATNLADGVPSRFSGSGSGTQYSLKINSLQSEDFGSYYCQHFWGTPTFGGGTKLEIK" property=EC50 assay_value=0.192

Turning to the following binder.
Problem: Quick one: EC50 of Nectin-4 3C12H/3C12L (recombinant chimeric antibody) (antibody, V domains shown) VH: QVQLKQSGPGLVQPSQSLSITCTVSGFSLTTYGVHWVRQSPGKGLEWLGVIWSGGNTDYNAAFISRLSISKDNSKSQVFFKMNSLQADDTAIYYCARMTHWYFDVWGTGTTVTVSS VL: DIVMTQSQKFMSTTVGDRVSITCKASQNVVTAVAWYQQKPGQSPKLLIYSASNRYTGVPDRFTGSGSGTDFTLTISYMQSEDLADYFCQQYSSYPLTFGAGTKLELK ?
Result: 0.282
